Biological target: Estrogen receptor (Homo sapiens)
Sequence (P03372 whole entry): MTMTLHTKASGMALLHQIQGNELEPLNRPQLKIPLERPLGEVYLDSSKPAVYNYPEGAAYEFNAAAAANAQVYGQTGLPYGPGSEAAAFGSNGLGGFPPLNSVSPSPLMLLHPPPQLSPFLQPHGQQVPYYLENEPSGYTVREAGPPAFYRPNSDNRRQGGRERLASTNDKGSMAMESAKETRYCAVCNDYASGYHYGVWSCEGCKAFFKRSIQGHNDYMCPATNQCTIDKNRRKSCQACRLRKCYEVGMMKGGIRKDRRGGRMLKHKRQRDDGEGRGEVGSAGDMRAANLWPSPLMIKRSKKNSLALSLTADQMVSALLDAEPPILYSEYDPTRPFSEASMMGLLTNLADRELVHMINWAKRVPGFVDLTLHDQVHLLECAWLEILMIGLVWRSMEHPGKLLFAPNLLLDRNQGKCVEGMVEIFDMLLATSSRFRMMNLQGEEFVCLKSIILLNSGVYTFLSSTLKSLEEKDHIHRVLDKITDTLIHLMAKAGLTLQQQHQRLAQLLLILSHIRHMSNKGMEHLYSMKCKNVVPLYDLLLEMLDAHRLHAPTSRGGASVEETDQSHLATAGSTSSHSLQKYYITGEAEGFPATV
Assay: Competitive inhibition of ER-alpha (unknown origin) ligand binding pocket expressed in ER-negative human SKBR3 cells coexpressing ERE using estradiol as substrate
Assay type: cell-based, SK-BR-3
result.type: IC50 (µM)
Report as a plain number; the unit µM is understood.

The measured IC50 associated with CCOC(=O)COc1ccc(-c2ccc(OCCN(C)C)cc2)cc1Cc1ccc2ccccc2c1 reads 3.2

Continuing:
The measured IC50 associated with CCOC(=O)COc1ccc(-c2ccc(OCCN(C)C)c(Cc3ccc(-c4ccccc4)cc3)c2)cc1 reads 3.1

====

Biological target: Estrogen receptor (Homo sapiens)
Sequence (whole entry): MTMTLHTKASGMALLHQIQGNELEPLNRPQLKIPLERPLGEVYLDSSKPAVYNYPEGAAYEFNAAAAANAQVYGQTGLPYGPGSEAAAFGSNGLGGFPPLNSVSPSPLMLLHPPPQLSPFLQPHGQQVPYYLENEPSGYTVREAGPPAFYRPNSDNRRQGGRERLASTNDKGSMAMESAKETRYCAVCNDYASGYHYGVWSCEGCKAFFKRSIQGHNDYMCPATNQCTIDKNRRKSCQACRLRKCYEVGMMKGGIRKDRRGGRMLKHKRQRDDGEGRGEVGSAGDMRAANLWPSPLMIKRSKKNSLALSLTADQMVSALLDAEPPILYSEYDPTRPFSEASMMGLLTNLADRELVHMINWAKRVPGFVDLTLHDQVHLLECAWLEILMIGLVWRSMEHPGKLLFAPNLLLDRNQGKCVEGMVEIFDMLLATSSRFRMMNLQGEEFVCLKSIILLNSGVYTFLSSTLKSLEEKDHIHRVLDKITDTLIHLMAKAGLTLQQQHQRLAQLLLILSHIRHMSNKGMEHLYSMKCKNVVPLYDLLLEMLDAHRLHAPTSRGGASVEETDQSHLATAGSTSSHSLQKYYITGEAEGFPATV
Assay: Competitive inhibition of ER-alpha (unknown origin)-GRIP1 interaction expressed in human HepG2 cells assessed as decrease in reporter gene activity at >50 uM after 40 hrs in presence of estradiol relative to control
Assay type: cell-based
Parameters: scale not given: the % may be the effect or the level left
result.type: Activity

The measured Activity associated with CCCCCCCc1cc(-c2ccc(OCCN(C)C)cc2)ccc1OCC(=O)OCC reads > 50%

The measured Activity associated with CCOC(=O)COc1ccc(-c2ccc(OCCN(C)C)c(CC3CCCCC3)c2)cc1CC1CCCCC1 reads > 50%

The measured Activity associated with CCOC(=O)COc1ccc(-c2ccc(O)cc2)cc1Cc1ccc2ccccc2c1 reads > 50%

The measured Activity associated with CCOC(=O)COc1ccc(-c2ccc(O)c(CC3CCCCC3)c2)cc1 reads > 50%
